Assay: Solubility (shaking flask)
Format: physicochemical
Conditions: phosphate buffer solution (PBS), aqueous buffer, thermodynamic from solid; PBS; 37° C. for 24 hours
Protocol: The solubility for certain compounds were determined using the following protocol and procedure. 1) The solution, sterile water or phosphate buffer solution (PBS), was added to the test compound tube to make the final concentration 10 mg/mL. 2) The sample tube was vortexed and incubated at 37° C. for 24 hours. During the incubation period, the sample tube was vortexed several times. […] 6) Samples were quantified using an HPLC with UV detector. […]
Quick list: solubility at 24 h per entry.

[
  {
    "molecule": "Cc1oc(=O)oc1COC(=O)NC1=CC(=O)Nc2ncnc3c2c1cn3[C@@H]1O[C@H](COC(=O)C(C)C)[C@@H](OC(=O)C(C)C)C1(C)O (stereo in doubt) [Compound 119]",
    "solubility at 24 h": "6 µg/mL"
  },
  {
    "molecule": "CC(=O)OC1(C)[C@H](OC(=O)C(C)C)[C@@H](COC(=O)C(C)C)O[C@H]1n1cc2c3c(ncnc31)NC(=O)C=C2N (stereo in doubt) [Compound 133]",
    "solubility at 24 h": "17 µg/mL"
  },
  {
    "molecule": "CC(=O)OCOC(=O)NC1=CC(=O)Nc2ncnc3c2c1cn3[C@@H]1O[C@H](COC(=O)C(C)C)[C@@H](OC(=O)C(C)C)[C@@]1(C)O [Compound 111]",
    "solubility at 24 h": "2 µg/mL"
  },
  {
    "molecule": "CC(C)C(=O)OC[C@H]1O[C@@H](n2cc3c4c(ncnc42)NC(=O)C=C3N)[C@@](C)(O)[C@@H]1OC(=O)C(C)C (stereo in doubt) [Compound 134]",
    "solubility at 24 h": "67 µg/mL"
  },
  {
    "molecule": "CCCCCC(=O)O[C@@H]1[C@@H](CO)O[C@@H](n2cc3c4c(ncnc42)NC(=O)C=C3N)[C@]1(C)O [Compound 113]",
    "solubility at 24 h": "67 µg/mL"
  },
  {
    "molecule": "CCC(=O)OC[C@H]1O[C@@H](n2cc3c4c(ncnc42)NC(=O)C=C3N)C(C)(O)[C@@H]1O (stereo in doubt) [Compound 131]",
    "solubility at 24 h": "8060 µg/mL"
  },
  {
    "molecule": "CC(C)C(=O)OC[C@H]1O[C@@H](n2cc3c4c(ncnc42)NC(=O)C=C3N)C(C)(OC(=O)C(C)C)[C@@H]1OC(=O)C(C)C (stereo partly drawn) [Compound 132]",
    "solubility at 24 h": "44 µg/mL"
  },
  {
    "molecule": "CC(=O)O[C@@H]1[C@@H](CO)O[C@@H](n2cc3c4c(ncnc42)NC(=O)C=C3N)C1(C)O (stereo in doubt) [Compound 114]",
    "solubility at 24 h": "2950 µg/mL"
  },
  {
    "molecule": "CC(=O)OC[C@H]1O[C@@H](n2cc3c4c(ncnc42)NC(=O)C=C3N)[C@@](C)(O)[C@@H]1OC(C)=O (stereo in doubt) [Compound 135]",
    "solubility at 24 h": "7280 µg/mL"
  },
  {
    "molecule": "CC(C)C(=O)O[C@@H]1[C@@H](CO)O[C@@H](n2cc3c4c(ncnc42)NC(=O)C=C3N)C1(C)O (stereo in doubt) [Compound 115]",
    "solubility at 24 h": "134 µg/mL"
  },
  {
    "molecule": "CC(=O)OC[C@H]1O[C@@H](n2cc3c4c(ncnc42)NC(=O)C=C3N)[C@@]2(C)OC(=O)O[C@H]12 [Compound 108]",
    "solubility at 24 h": "28 µg/mL"
  },
  {
    "molecule": "Cc1oc(=O)oc1COC(=O)NC1=CC(=O)Nc2ncnc3c2c1cn3[C@@H]1O[C@H](CO)[C@@H](O)C1(C)O (stereo partly drawn) [Compound 126]",
    "solubility at 24 h": "40 µg/mL"
  }
]
